Origin of values: patent US6020366A

biological target: full-length collagenase (FLC) (Homo sapiens); construct: full-length collagenase hydrolysis of thiopeptolide substrate (FLC); assay: inhibition of full-length collagenase hydrolysis of thiopeptolide substrate; type: biochemical
Sequence (P03956 100-469): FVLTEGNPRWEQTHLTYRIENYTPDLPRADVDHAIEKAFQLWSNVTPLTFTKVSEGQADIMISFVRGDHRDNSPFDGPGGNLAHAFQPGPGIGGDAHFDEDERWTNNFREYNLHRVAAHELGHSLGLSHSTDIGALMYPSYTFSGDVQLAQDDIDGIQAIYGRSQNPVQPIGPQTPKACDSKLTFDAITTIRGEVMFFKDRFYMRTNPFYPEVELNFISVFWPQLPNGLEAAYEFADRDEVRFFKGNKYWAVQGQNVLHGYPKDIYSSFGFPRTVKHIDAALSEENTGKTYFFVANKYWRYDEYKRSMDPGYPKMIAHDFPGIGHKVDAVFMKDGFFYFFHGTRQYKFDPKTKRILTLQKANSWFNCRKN
experimental endpoint: IC50

Documented IC50 of O=C(C[C@H](NC(=O)C(F)(F)F)C(=O)O)c1ccc2oc3ccccc3c2c1 : > 100 µM

---

Target: UniProt:P08254
Sequence (P08254 100-477): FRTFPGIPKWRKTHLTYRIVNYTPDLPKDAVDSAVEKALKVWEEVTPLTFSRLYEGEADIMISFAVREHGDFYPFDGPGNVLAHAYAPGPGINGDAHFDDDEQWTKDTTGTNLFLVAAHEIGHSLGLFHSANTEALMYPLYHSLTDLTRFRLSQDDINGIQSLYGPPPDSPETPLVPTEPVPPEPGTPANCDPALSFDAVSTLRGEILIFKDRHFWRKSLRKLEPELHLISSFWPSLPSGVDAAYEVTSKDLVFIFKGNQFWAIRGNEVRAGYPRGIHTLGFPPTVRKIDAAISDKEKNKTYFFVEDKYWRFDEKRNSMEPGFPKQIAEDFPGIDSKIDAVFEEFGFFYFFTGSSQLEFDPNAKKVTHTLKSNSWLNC
Experiment: inhibition of MMP-3 hydrolysis of thiopeptolide substrate
Assay type: biochemical
Details: thiopeptolide substrate, pH 6.0, 22° C.; read-out: (IC50) MMP-3
Text: The assays measure the amount by which a test compound reduces the hydrolysis of a thiopeptolide substrate caused by a matrix metalloproteinase enzyme. Such assays are described in detail by Ye, et al., in Biochemistry, 1992;31(45):11231-11235). Thiopeptolide substrates show virtually no decomposition or hydrolysis in the absence of a matrix metalloproteinase enzyme. A typical thiopeptolide substrate commonly utilized for assays is Ac-Pro-Leu-Gly-thioester-Len-Len-Gly-O Et. […]
For each of the compounds below, state its pIC50.
Numbers only, as −log10 of the molar value.

{"columns": ["compound", "pIC50"],
 "data": [
  ["O=C(C[C@H](NC(=O)C(F)(F)F)C(=O)O)c1ccc2c(c1)Cc1ccccc1-2", 4.12],
  ["CCCCCCCCCCCC(=O)N[C@@H](CC(=O)c1ccc2oc3ccccc3c2c1)C(=O)O", 5.40],
  ["O=C(CC(NC(=O)c1ccncc1)C(=O)O)c1ccc2oc3ccccc3c2c1 (centres unmarked)", 4.89],
  ["O=C(CC(NC(=O)c1cccs1)C(=O)O)c1ccc2oc3ccccc3c2c1 (centres unmarked)", 5.89],
  ["CCCCc1ccc(C(=O)NC(CC(=O)c2ccc3oc4ccccc4c3c2)C(=O)O)cc1 (centres unmarked)", 5.27]
]}

State recorded pIC50 for all listed compounds.
1. O=C(CCCc1ccc(Br)cc1)NC(CC(=O)c1ccc2oc3ccccc3c2c1)C(=O)O (centres unmarked)
2. O=C(O)[C@H](CC(=NO)c1ccc2oc3ccccc3c2c1)NC(=O)C(F)(F)F
3. O=C(C[C@H](NC(=O)c1ccccc1)C(=O)O)c1ccc2oc3ccccc3c2c1

[reply]
1. 5.28
2. 5.18
3. 6.04

---

target: MMP-13 (Collagenase 3) (Homo sapiens); assay: inhibition of MMP-13 hydrolysis of thiopeptolide substrate; assay type: biochemical; conditions: thiopeptolide substrate, pH 6.0, 22° C.; read-out: (IC50) MMP-13
experimental endpoint: IC50 (µM)
One number for each entry, in µM.

Example results:
{"columns": ["compound", "assay target", "measure unit", "IC50"],
 "data": [
  ["O=C(COc1ccccc1)NC(CC(=O)c1ccc2oc3ccccc3c2c1)C(=O)O (stereo not shown) [Example 28]", "MMP-13 (Collagenase 3) (Homo sapiens)", "µM", 12],
  ["CCCCCCCC(=O)N[C@@H](CC(=O)c1ccc2oc3ccccc3c2c1)C(=O)O [Example 11]", "MMP-13 (Collagenase 3) (Homo sapiens)", "µM", 6.8],
  ["COc1ccc(C(=O)NC(CC(=O)c2ccc3oc4ccccc4c3c2)C(=O)O)cc1OC (stereo not shown) [Example 47]", "MMP-13 (Collagenase 3) (Homo sapiens)", "µM", 8.8]
]}

Now for another entry.
Documented IC50 of O=C(C=Cc1ccccc1)NC(CC(=O)c1ccc2oc3ccccc3c2c1)C(=O)O (stereo not shown) [Example 25] : 8.4
